# target_or_test_system: the molecule itself
# experimental_details: SEC; analytical size-exclusion chromatography, Superdex 200 10/30, Tris-HCl 20 mM pH 7.8, NaCl 100 mM, glycerol 5%, CHAPS 0.01%, DTT 4 mM; column calibrated with marker proteins; number of chains from apparent over theoretical monomer molecular weight

protein: KCTD1^H74P (full-length KCTD1 with the SEN-causing mutation H74P) (natural protein, human, UniProt Q719H9 1-257, looked up, KCTD1, full-length protein, residues 1-257, disease-causing missense variant H74P; the mutation occurs in families with SEN syndrome; also called KCTD^H74P; source: E. coli BL21(DE3), purified (His-trap, TEV digestion, Superdex 200); not shown: polyHis, N-terminal, cleaved) MSRPLITRSPASPLNNQGIPTPAQLTKSNAPVHIDVGGHMYTSSLATLTKYPESRIGRLFDGTEPIVLDSLKQPYFIDRDGQMFRYILNFLRTSKLLIPDDFKDYTLLYEEAKYFQLQPMLLEMERWKQDRETGRFSRPCECLVVRVAPDLGERITLSGDKSLIEEVFPEIGDVMCNSVNAGWNHDSTHVIRFPLNGYCHLNSVQVLERLQQRGFEIVGSCGGGVDSSQFSEYVLRRELRRTPRVPSVIRIKQEPLD
binding result: binds
--
protein: KCTD1^G62D (full-length KCTD1 with the SEN-causing mutation G62D) (natural protein, human, UniProt Q719H9 1-257, looked up, KCTD1, full-length protein, residues 1-257, disease-causing missense variant G62D; the mutation occurs in families with SEN syndrome; One sentence of the modelling section prints Gly62Glu; everywhere else G62D; also called KCTD^G62D; source: E. coli BL21(DE3), purified (His-trap, TEV digestion, Superdex 200); not shown: polyHis, N-terminal, cleaved) MSRPLITRSPASPLNNQGIPTPAQLTKSNAPVHIDVGGHMYTSSLATLTKYPESRIGRLFDDTEPIVLDSLKQHYFIDRDGQMFRYILNFLRTSKLLIPDDFKDYTLLYEEAKYFQLQPMLLEMERWKQDRETGRFSRPCECLVVRVAPDLGERITLSGDKSLIEEVFPEIGDVMCNSVNAGWNHDSTHVIRFPLNGYCHLNSVQVLERLQQRGFEIVGSCGGGVDSSQFSEYVLRRELRRTPRVPSVIRIKQEPLD
binding result: binds
